# method_summary: Aqueous solubility of the compound in PBS at pH 7 at 2 mg incubated for 24 hrs by HPLC-UV analysis
# Type: physicochemical

- chemical_string: "CC(=O)O.COc1ccc(S(=O)(=O)N(CC(N)=O)c2ccc(N(CC(N)=O)S(=O)(=O)c3ccc(NC(=O)[C@H]4CCN4)cc3)c3ccccc23)cc1"
  unit_info: "mg/mL"
  solubility at 24 h: 0.162
- chemical_string: "Br.COc1ccc(S(=O)(=O)N(CC(N)=O)c2ccc(N(CC(N)=O)S(=O)(=O)c3ccc(NC(=O)[C@H]4CCN4)cc3)c3ccccc23)cc1"
  unit_info: "mg/mL"
  solubility at 24 h: 0.256
- chemical_string: "COc1ccc(S(=O)(=O)N(CC(N)=O)c2ccc(N(CC(N)=O)S(=O)(=O)c3ccc(NC(=O)[C@H]4CCN4)cc3)c3ccccc23)cc1.O=C(O)/C=C\\C(=O)O"
  unit_info: "mg/mL"
  solubility at 24 h: 0.0323

* * *

# method_summary: Tmax in Sprague-Dawley rat at 20 mg/kg, ip
# Assay type: ADME, organism-based
# experimental_conditions: in vivo

- chemical_string: "COc1ccc(S(=O)(=O)N(CC(N)=O)c2ccc(N(CC(N)=O)S(=O)(=O)c3ccc(NC(=O)[C@H]4CCN4)cc3)c3ccccc23)cc1"
  unit_info: "min"
  Tmax: 22.8

* * *

# method_summary: Half life in Sprague-Dawley rat at 20 mg/kg, ip
# Type: ADME, organism-based
# experimental_conditions: in vivo

- chemical_string: "COc1ccc(S(=O)(=O)N(CC(N)=O)c2ccc(N(CC(N)=O)S(=O)(=O)c3ccc(NC(=O)[C@H]4CCN4)cc3)c3ccccc23)cc1"
  unit_info: "h"
  half-life: 5.75

* * *

# method_summary: Aqueous solubility of the compound in PBS at pH 2 at 2 mg incubated for 24 hrs by HPLC-UV analysis
# Format: physicochemical

- chemical_string: "COc1ccc(S(=O)(=O)N(CC(N)=O)c2ccc(N(CC(N)=O)S(=O)(=O)c3ccc(NC(=O)[C@H]4CCN4)cc3)c3ccccc23)cc1.O=C(O)/C=C\\C(=O)O"
  solubility at 24 h (µg/mL): 46.3
- chemical_string: "COc1ccc(S(=O)(=O)N(CC(N)=O)c2ccc(N(CC(N)=O)S(=O)(=O)c3ccc(NC(=O)[C@H]4CCN4)cc3)c3ccccc23)cc1.Cl"
  solubility at 24 h (µg/mL): 1170
- chemical_string: "COc1ccc(S(=O)(=O)N(CC(N)=O)c2ccc(N(CC(N)=O)S(=O)(=O)c3ccc(NC(=O)[C@H]4CCN4)cc3)c3ccccc23)cc1"
  solubility at 24 h (µg/mL): 601
- chemical_string: "CC(=O)O.COc1ccc(S(=O)(=O)N(CC(N)=O)c2ccc(N(CC(N)=O)S(=O)(=O)c3ccc(NC(=O)[C@H]4CCN4)cc3)c3ccccc23)cc1"
  solubility at 24 h (µg/mL): 311
- chemical_string: "Br.COc1ccc(S(=O)(=O)N(CC(N)=O)c2ccc(N(CC(N)=O)S(=O)(=O)c3ccc(NC(=O)[C@H]4CCN4)cc3)c3ccccc23)cc1"
  solubility at 24 h (µg/mL): 672
- chemical_string: "COc1ccc(S(=O)(=O)N(CC(N)=O)c2ccc(N(CC(N)=O)S(=O)(=O)c3ccc(NC(=O)[C@H]4CCN4)cc3)c3ccccc23)cc1.O=C(O)C(F)(F)F"
  solubility at 24 h (µg/mL): 423
- chemical_string: "COc1ccc(S(=O)(=O)N(CC(N)=O)c2ccc(N(CC(N)=O)S(=O)(=O)c3ccc(NC(=O)[C@H]4CCN4)cc3)c3ccccc23)cc1.O=C(O)CCC(=O)O"
  solubility at 24 h (µg/mL): 145

* * *

# target: Keap1/Nrf2 (Homo sapiens) (UniProt Q16236+Q14145)
# Sequence (Q14145 whole entry, looked up): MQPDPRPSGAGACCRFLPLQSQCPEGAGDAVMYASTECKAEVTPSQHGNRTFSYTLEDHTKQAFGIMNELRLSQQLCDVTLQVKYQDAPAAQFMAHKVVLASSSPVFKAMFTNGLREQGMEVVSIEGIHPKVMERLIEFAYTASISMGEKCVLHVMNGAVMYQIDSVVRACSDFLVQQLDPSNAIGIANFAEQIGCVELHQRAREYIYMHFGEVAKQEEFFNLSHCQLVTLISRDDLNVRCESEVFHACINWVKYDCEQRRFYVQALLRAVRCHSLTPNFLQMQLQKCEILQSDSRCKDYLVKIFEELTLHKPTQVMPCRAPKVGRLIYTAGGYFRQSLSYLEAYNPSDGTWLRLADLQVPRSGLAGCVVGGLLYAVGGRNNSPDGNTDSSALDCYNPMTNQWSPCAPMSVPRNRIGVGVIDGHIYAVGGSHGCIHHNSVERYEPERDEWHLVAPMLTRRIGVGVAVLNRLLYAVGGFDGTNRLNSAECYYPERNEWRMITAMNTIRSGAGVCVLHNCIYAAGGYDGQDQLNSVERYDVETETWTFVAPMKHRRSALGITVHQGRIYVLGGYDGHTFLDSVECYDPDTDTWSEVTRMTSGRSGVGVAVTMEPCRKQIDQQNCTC
# Sequence (Q16236 whole entry, looked up): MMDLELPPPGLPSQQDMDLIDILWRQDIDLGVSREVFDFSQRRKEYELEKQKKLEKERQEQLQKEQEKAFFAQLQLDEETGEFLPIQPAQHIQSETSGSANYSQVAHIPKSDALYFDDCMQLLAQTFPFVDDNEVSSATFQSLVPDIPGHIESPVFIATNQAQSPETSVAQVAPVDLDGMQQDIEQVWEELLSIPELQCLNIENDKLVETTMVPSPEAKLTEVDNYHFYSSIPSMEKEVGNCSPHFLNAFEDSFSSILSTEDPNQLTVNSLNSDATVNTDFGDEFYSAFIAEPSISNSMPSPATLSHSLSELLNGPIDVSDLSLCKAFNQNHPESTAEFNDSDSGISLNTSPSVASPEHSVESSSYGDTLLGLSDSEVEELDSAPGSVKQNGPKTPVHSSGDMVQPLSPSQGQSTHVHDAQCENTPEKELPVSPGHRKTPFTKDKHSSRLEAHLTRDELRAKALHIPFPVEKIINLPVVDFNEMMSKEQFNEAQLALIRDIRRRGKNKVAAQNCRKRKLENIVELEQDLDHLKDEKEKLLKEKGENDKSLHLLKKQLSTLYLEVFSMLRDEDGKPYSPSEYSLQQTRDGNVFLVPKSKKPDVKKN
# method_summary: Binding affinity to human Keap1-Nrf2 protein-protein interaction assessed as dissociation constant (Kd2) incubated for 60 mins by fluorescent polarization assay
property_label: K (nM)

- compound: "COc1ccc(S(=O)(=O)N(CC(N)=O)c2ccc(N(CC(N)=O)S(=O)(=O)c3ccc(NC(=O)[C@H](N)C(C)C)cc3)c3ccccc23)cc1"
  quantitative_readout: 810
- compound: "COc1ccc(S(=O)(=O)N(CC(N)=O)c2ccc(N(CC(N)=O)S(=O)(=O)c3ccc(NC(=O)[C@H](C)N)cc3)c3ccccc23)cc1"
  quantitative_readout: 240
- compound: "COc1ccc(S(=O)(=O)N(CC(N)=O)c2ccc(N(CC(N)=O)S(=O)(=O)c3ccc(NC(=O)C4CCN4)cc3)c3ccccc23)cc1 (configuration not stated)"
  quantitative_readout: 260
- compound: "COCC(=O)Nc1ccc(S(=O)(=O)N(CC(N)=O)c2ccc(N(CC(N)=O)S(=O)(=O)c3ccc(OC)cc3)c3ccccc23)cc1"
  quantitative_readout: 550
- compound: "COc1ccc(S(=O)(=O)N(CC(N)=O)c2ccc(N(CC(N)=O)S(=O)(=O)c3ccc(NC(=O)[C@@H](C)N)cc3)c3ccccc23)cc1"
  quantitative_readout: 230
- compound: "COc1ccc(S(=O)(=O)N(CC(N)=O)c2ccc(N(CC(N)=O)S(=O)(=O)c3ccc(NC(=O)[C@H]4CCNC4)cc3)c3ccccc23)cc1"
  quantitative_readout: 250
- compound: "COc1ccc(S(=O)(=O)N(CC(N)=O)c2ccc(N(CC(N)=O)S(=O)(=O)c3ccc(NC(=O)[C@H]4CCN4)cc3)c3ccccc23)cc1"
  quantitative_readout: 220

* * *

# method_summary: AUC (0 to 24 hrs) in Sprague-Dawley rat at 5 mg/kg, iv
# Format: ADME, organism-based
# Parameters: dose 5 mg/kg, route iv
# experimental_conditions: in vivo
property_label: AUC(0-t) (ng·h/mL)

- chemical_string: "COc1ccc(S(=O)(=O)N(CC(N)=O)c2ccc(N(CC(N)=O)S(=O)(=O)c3ccc(NC(=O)[C@H]4CCN4)cc3)c3ccccc23)cc1"
  quantitative_readout: 1390

* * *

# method_summary: AUC (0 to 24 hrs) in Sprague-Dawley rat at 20 mg/kg, ip
# Format: ADME, organism-based
# Set-up: dose 20 mg/kg, route ip
# experimental_conditions: in vivo
property_label: AUC(0-t) (ng·h/mL)

- chemical_string: "COc1ccc(S(=O)(=O)N(CC(N)=O)c2ccc(N(CC(N)=O)S(=O)(=O)c3ccc(NC(=O)[C@H]4CCN4)cc3)c3ccccc23)cc1"
  quantitative_readout: 11200

* * *

# method_summary: AUC (0 to infinity) in Sprague-Dawley rat at 5 mg/kg, iv
# Format: ADME, organism-based
# Design: dose 5 mg/kg, route iv
# experimental_conditions: in vivo

- chemical_string: "COc1ccc(S(=O)(=O)N(CC(N)=O)c2ccc(N(CC(N)=O)S(=O)(=O)c3ccc(NC(=O)[C@H]4CCN4)cc3)c3ccccc23)cc1"
  AUC(0-inf) (ng·h/mL): 1590

* * *

# method_summary: AUC (0 to infinity) in Sprague-Dawley rat at 20 mg/kg, ip
# Assay type: ADME, organism-based
# Design: dose 20 mg/kg, route ip
# experimental_conditions: in vivo
property_label: AUC(0-inf) (ng·h/mL)

- chemical_string: "COc1ccc(S(=O)(=O)N(CC(N)=O)c2ccc(N(CC(N)=O)S(=O)(=O)c3ccc(NC(=O)[C@H]4CCN4)cc3)c3ccccc23)cc1"
  property_label: "AUC(0-inf)"
  unit_info: "ng·h/mL"
  quantitative_readout: 11200

* * *

# method_summary: Aqueous solubility of the compound in PBS at pH 7.4 at 2 mg incubated for 24 hrs by HPLC-UV analysis
# Format: physicochemical

- chemical_string: "COc1ccc(S(=O)(=O)N(CC(N)=O)c2ccc(N(CC(N)=O)S(=O)(=O)c3ccc(NC(=O)[C@H]4CCN4)cc3)c3ccccc23)cc1.O=C(O)/C=C\\C(=O)O"
  solubility at 24 h (µg/mL): 34.7
- chemical_string: "Br.COc1ccc(S(=O)(=O)N(CC(N)=O)c2ccc(N(CC(N)=O)S(=O)(=O)c3ccc(NC(=O)[C@H]4CCN4)cc3)c3ccccc23)cc1"
  solubility at 24 h (µg/mL): 137
- chemical_string: "COc1ccc(S(=O)(=O)N(CC(N)=O)c2ccc(N(CC(N)=O)S(=O)(=O)c3ccc(NC(=O)[C@H]4CCN4)cc3)c3ccccc23)cc1.O=C(O)C(F)(F)F"
  solubility at 24 h (µg/mL): 275
- chemical_string: "COc1ccc(S(=O)(=O)N(CC(N)=O)c2ccc(N(CC(N)=O)S(=O)(=O)c3ccc(NC(=O)[C@H]4CCN4)cc3)c3ccccc23)cc1.O=C(O)CCC(=O)O"
  solubility at 24 h (µg/mL): 65.6
- chemical_string: "COc1ccc(S(=O)(=O)N(CC(N)=O)c2ccc(N(CC(N)=O)S(=O)(=O)c3ccc(NC(=O)[C@H]4CCN4)cc3)c3ccccc23)cc1.Cl"
  solubility at 24 h (µg/mL): 283
- chemical_string: "CC(=O)O.COc1ccc(S(=O)(=O)N(CC(N)=O)c2ccc(N(CC(N)=O)S(=O)(=O)c3ccc(NC(=O)[C@H]4CCN4)cc3)c3ccccc23)cc1"
  solubility at 24 h (µg/mL): 160
- chemical_string: "COc1ccc(S(=O)(=O)N(CC(N)=O)c2ccc(N(CC(N)=O)S(=O)(=O)c3ccc(NC(=O)[C@H]4CCN4)cc3)c3ccccc23)cc1"
  solubility at 24 h (µg/mL): 216
